The entries below come with measured pIC50 values attached.
Molecular target: AKT1 WT (Homo sapiens, UniProt P31749)
Construct: expressed in transfected cells; host or cells: HEK293
Sequence (P31749 whole entry): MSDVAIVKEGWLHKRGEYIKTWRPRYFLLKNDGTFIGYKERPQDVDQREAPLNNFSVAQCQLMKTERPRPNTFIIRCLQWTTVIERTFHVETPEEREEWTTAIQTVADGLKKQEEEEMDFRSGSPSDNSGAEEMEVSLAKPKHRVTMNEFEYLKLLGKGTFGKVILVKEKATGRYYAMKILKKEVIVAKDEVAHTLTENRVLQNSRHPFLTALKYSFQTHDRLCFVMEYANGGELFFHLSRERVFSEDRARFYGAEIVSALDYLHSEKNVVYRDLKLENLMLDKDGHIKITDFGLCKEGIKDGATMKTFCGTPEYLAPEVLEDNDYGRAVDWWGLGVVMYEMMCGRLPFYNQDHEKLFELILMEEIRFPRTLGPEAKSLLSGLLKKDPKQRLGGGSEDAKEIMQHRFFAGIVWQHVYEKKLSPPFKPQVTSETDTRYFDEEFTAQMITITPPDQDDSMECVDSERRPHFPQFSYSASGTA
Assay: Live cell AKT1 WT target engagement by NanoBRET competitive probe displacement in HEK293 cells
Assay type: binding
Details: NanoBRET live cell target engagement, HEK293 cells, 2 h at 37° C.; read-out: AKT1 WT IC50
pIC50: −log10 of the molar value.
metric.name: pIC50

molecule: Nc1ncccc1-c1nc2ccc(-n3cccn3)nc2n1-c1ccc2c(c1)CC[C@@H]2n1cc(-c2ccccn2)nn1
metric.name: pIC50
test.value: 7.83
//
molecule: Cc1ccc(C(=O)N[C@H]2CCc3cc(-n4c(-c5cccnc5N)nc5ccc(-n6cncn6)nc54)ccc32)cn1
metric.name: pIC50
test.value: 7.61
//
molecule: Nc1ncccc1-c1nc2ccc(-n3cccn3)nc2n1-c1ccc2c(c1)CC[C@@H]2NCc1ccc(C(F)F)nc1
metric.name: pIC50
test.value: 6.95
//
molecule: Nc1ncccc1-c1nc2ccc(-n3cccn3)nc2n1-c1ccc2c(c1)CC[C@@H]2NC(=O)COc1ccon1
metric.name: pIC50
test.value: 6.89
//
molecule: Cc1ncccc1C(=O)N[C@H]1CCc2cc(-n3c(-c4cccnc4N)nc4c(C#N)cc(-n5cccn5)nc43)ccc21
metric.name: pIC50
test.value: 7.88
//
molecule: COc1cc(C(=O)N[C@H]2CCc3cc(-n4c(-c5cccnc5N)nc5ccc(-n6cccn6)nc54)ccc32)cc(F)c1F
metric.name: pIC50
test.value: 8.14
//
molecule: Nc1ncccc1-c1nc2ccc(-n3cccn3)nc2n1-c1ccc2c(c1)CCC2n1cccn1 (stereo not shown)
metric.name: pIC50
test.value: 6.92
